system: MCF7 cells; test: Whole cell cytotoxicity assay: Sulforhodamine B; assay type: cell-based; conditions: Homo sapiens, 48 hours with drug, Sulforhodamine B staining
Response field label: string, one of YES (GI50 strictly below 4 µM) or NO.

Known results for compounds:
O=C(/C=C/c1cnc(N2CCN(S(=O)(=O)c3ccc(F)cc3)CC2)s1)NO [Example 4m]: YES
O=C(NO)c1cnc(N2CCCN(S(=O)(=O)c3ccc4ccccc4c3)CC2)s1 [Example 2]: NO
O=C(NO)c1cnc(N2CCC(NS(=O)(=O)c3ccc(-c4ccccc4)cc3)CC2)s1 [Example 5b]: NO

input: Determine if O=C(/C=C/c1cnc(N2CCN(S(=O)(=O)c3ccc4ccccc4c3)CC2)s1)NO [Example 4] shows GI50 strictly lower than 4 µM.
output: YES

input: I'd appreciate it if you could check whether O=C(NO)c1cnc(NC2CCN(S(=O)(=O)c3ccc4ccccc4c3)CC2)s1 [Example 5f] has GI50 smaller than 4 µM.
output: NO

input: Identify whether the compound O=C(/C=C/c1cnc(N2CCN(S(=O)(=O)c3ccc(OC(F)(F)F)cc3)CC2)s1)NO [Example 4e] records GI50 below 4 µM.
output: NO

input: # TODO verify GI50 < 4 µM strictly for this compound: O=C(NO)c1cnc(N2CCN(C(=O)CCc3c[nH]c4ccccc34)CC2)s1 [Example 23b]
output: NO

input: Does the reported GI50 of the following compound sit strictly below 4 µM? O=C(NO)c1cnc(N2CCC(CNS(=O)(=O)c3ccc(-c4ccccc4)cc3)CC2)s1 [Example 5e]
output: YES

input: Is GI50 of Cc1ccc(S(=O)(=O)N2CCCN(c3ncc(C(=O)NO)s3)C2)cc1 [Example 5h] strictly below 4 µM?
output: YES

input: For this compound, is GI50 lower than 4 µM? O=C(/C=C/c1cnc(N2CCN(S(=O)(=O)c3ccc([N+](=O)[O-])cc3)CC2)s1)NO [Example 4h]
output: NO

input: Lab note: GI50 threshold 4 µM. Does this compound come in strictly under it? O=C(NO)c1cnc(CN2CCN(S(=O)(=O)c3ccc4ccccc4c3)CC2)s1 [Example 24]
output: NO

input: In plain terms, does O=C(/C=C/c1cnc(N2CCN(S(=O)(=O)c3cccs3)CC2)s1)NO [Example 4i] come in under 4 µM for GI50?
output: NO

input: I wonder whether Cc1ccc(S(=O)(=O)N2CCN(c3ncc(/C=C/C(=O)NO)s3)CC2)cc1 [Example 4f] has GI50 below 4 µM. Can you tell?
output: YES

input: Consider the compound Cc1ccc(S(=O)(=O)NC2C3CN(c4ncc(C(=O)NO)s4)CC32)cc1 (centres unmarked) [Example 5g] . Is its GI50 strictly less than 4 µM?
output: NO

---

tested on: MCF7 cells; assay: Whole cell cytotoxicity assay: Sulforhodamine B; format: cell-based; conditions: Homo sapiens, 48 hours with drug, Sulforhodamine B staining
Label TRUE when GI50 is strictly below 3 µM; otherwise label FALSE.

O=C(CN1CCN(c2ncc(C(=O)NO)s2)CC1)c1ccccc1 [Example 20B]: FALSE
COc1ccc(S(=O)(=O)N2CCN(c3ncc(/C=C/C(=O)NO)s3)CC2)cc1: TRUE
O=C(NO)c1cnc(N2CCC(NS(=O)(=O)c3ccc4ccccc4c3)CC2)s1: FALSE

# input for lookup
input: Quick check: does O=C(NO)c1cnc(N2CCN(C(=O)Cc3ccccc3)CC2)s1 have GI50 under 3 µM?
output: FALSE

---

test system: MCF7 cells; assay: Whole cell cytotoxicity assay: Sulforhodamine B; format: cell-based; settings: Homo sapiens, 48 hours with drug, Sulforhodamine B staining
Consider the following molecules; for each one, report its GI50.
Numbers only, in µM.

// below: answered molecules
O=C(/C=C/c1cnc(N2CCN(S(=O)(=O)c3ccc(-c4ccccc4)cc3)CC2)s1)NO: 1.5
O=C(NO)c1cnc(N2CCN(C(=O)c3ccccc3)CC2)s1: 40
Cc1ccc(S(=O)(=O)NC2CCN(c3ncc(C(=O)NO)s3)CC2)cc1: 15

Note: attention shifts to another entry.
input: Entry O=C(NO)c1cnc(C2CCN(S(=O)(=O)c3ccc(-c4ccccc4)cc3)CC2)s1 needs its GI50 filled in; supply it.
output: 100

---

test system: MCF7 cells; experiment: Whole cell cytotoxicity assay: Sulforhodamine B; type: cell-based; conditions: Homo sapiens, 48 hours with drug, Sulforhodamine B staining
Kindly state GI50 for each of the entries shown.
Give bare numbers, in µM.

Guide cases for GI50, answers given:
CN(C)c1cccc2c(S(=O)(=O)N3CCN(c4ncc(/C=C/C(=O)NO)s4)CC3)cccc12: 4
COc1ccc(S(=O)(=O)N2CCN(c3ncc(/C=C/C(=O)NO)s3)CC2)cc1OC: 4

Field: next molecule
input: Identify GI50 associated with the molecule O=C(NO)c1cnc(N2CCN(Cc3ccccc3)CC2)s1
output: 4
